Measured target: T1, ARID4B TD151 (Homo sapiens, UniProt Q4LE39 1-151)
T1 sequence: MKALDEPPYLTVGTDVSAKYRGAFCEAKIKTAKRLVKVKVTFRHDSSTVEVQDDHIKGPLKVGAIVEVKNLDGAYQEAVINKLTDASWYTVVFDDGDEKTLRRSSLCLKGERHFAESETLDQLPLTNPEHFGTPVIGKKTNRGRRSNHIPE
Assay name: NMR titration; n fixed 3; 50 mM Tris-HCl pH 7.6, 50 mM NaCl (buffer A); ITC 25 C; EMSA 4 C, 12 uM DNA, 8% native gel in TBE; NMR titration by 1H-15N HSQC (temperature not stated for titration; buffer A also defined elsewhere as 20 mM phosphate, 100 mM NaCl, pH 7.0)
Condition description: protein: recombinant; chain copies: 3; 5' overhang 1 nt on each strand (17 bp paired)
Measured property: Kd (µM)
# number only, unit µM dropped from output

Summary for this binder, dsDNA1 (dsDNA) DNA 1: CTCAGGTCAAAGGTCACG DNA 2: TCGTGACCTTTGACCTGA : Kd is 22

// provenance: paper PMC8038949
